# Tested system: human PCSK9 (Homo sapiens)
# Sequence (Q8NBP7 153-692): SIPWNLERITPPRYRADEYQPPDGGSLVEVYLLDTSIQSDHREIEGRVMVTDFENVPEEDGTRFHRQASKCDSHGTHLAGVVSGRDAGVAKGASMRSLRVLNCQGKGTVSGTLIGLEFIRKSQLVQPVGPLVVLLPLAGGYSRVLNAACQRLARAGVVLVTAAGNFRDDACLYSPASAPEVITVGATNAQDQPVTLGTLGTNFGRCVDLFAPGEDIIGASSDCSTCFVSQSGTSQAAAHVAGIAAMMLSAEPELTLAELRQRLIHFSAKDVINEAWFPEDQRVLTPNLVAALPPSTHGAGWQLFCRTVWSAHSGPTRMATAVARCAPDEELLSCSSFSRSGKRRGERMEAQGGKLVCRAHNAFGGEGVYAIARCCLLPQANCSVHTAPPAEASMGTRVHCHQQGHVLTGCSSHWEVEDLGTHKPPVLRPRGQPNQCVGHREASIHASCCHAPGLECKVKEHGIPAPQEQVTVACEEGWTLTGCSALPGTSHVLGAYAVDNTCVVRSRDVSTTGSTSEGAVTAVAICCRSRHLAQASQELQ
# Sequence (Q8NBP7 31-152 partner limits assumed): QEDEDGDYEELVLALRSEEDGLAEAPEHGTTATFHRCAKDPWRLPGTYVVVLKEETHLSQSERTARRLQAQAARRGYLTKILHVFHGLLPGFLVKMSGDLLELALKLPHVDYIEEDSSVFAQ
# Assay explanation: PCSK9 ligand binding assay (TR-FRET): interference with binding of human PCSK9 to human LDLR
# Condition details: Human PCSK9 Alexa Fluor 647 / Human LDLR extracellular domain-Europium Kryptate
Metric name: pIC50
Give bare numbers, as −log10 of the molar value.

These solved cases illustrate the format of a correct answer.
{"columns": ["Molecule", "pIC50"],
 "data": [
  ["C[C@H]1C(=O)N[C@@H](CO)C(=O)N[C@@]2(Cc3ccc(Cl)cc3)CCCN(C2)C(=O)[C@H](Cc2cccc(C(F)(F)F)c2)CC(=O)N1Cc1c(F)cc(Cl)cc1Oc1ccc(-c2cnc(CN(C)C)n2C)cc1 [Compound 80]", 9.20],
  ["COC[C@@H]1NC(=O)[C@H](C)N(Cc2c(F)cc(Cl)cc2Oc2ccc(-c3cnc(CNC(C)(C)C)n3C)cc2)C(=O)C[C@@H](C2CC(F)(F)C2)C(=O)N2CCC[C@@](Cc3ccc(Cl)cc3)(C2)N(C)C1=O [Compound 165]", 9.03]
]}

Each of the following entries comes with a recorded value; kindly state pIC50 for each.
1. COC[C@@H]1NC(=O)[C@H](C)N(Cc2c(F)cc(Cl)cc2Oc2ccc(-c3cnc(CNC(C)(C)C)n3C)cc2)C(=O)C[C@@H](CC2CC2)C(=O)N2CCC[C@@](Cc3ccc(Cl)cc3)(C2)NC1=O [Compound 142]
2. C[C@H]1C(=O)N[C@@H](CO)C(=O)N[C@@]2(Cc3ccc(Cl)cc3)CCCN(C2)C(=O)[C@H](Cc2ccccc2)CC(=O)N1Cc1c(Cl)cc(Cl)cc1Oc1ccc(-c2cnc(CN(C)C)n2C)cc1 [Compound 98]
3. C[C@H]1C(=O)N[C@@H](CO)C(=O)N[C@@]2(Cc3ccc(Cl)cc3)CCCN(C2)C(=O)[C@H]([C@H]2CCc3ccccc32)CC(=O)N1Cc1ccc(Cl)cc1Oc1ccc(-c2cnc(CN3CCCC3)n2C)cc1.Cl [Compound 68, hydrochloride]
4. COC[C@@H]1NC(=O)[C@H](C)N(Cc2c(F)cc(Cl)cc2Oc2ccc(-c3cnc(CN(C)C)n3C)cc2)C(=O)C[C@@H](Cc2ccccn2)C(=O)N2CCC[C@@](Cc3ccc(Cl)cc3)(C2)N(C)C1=O [Compound 57]
5. COC[C@@H]1NC(=O)[C@H](C)N(Cc2ccc(Cl)cc2Oc2ccc(-c3cnc(CN(C)C)n3C)nc2)C(=O)C[C@@H](Cc2ccccc2)C(=O)N2CCC[C@@](Cc3ccc(Cl)cc3)(C2)N(C)C1=O [Compound 27]
6. CCc1ccc(CN2C(=O)C[C@@H]([C@@H]3CCc4ccccc43)C(=O)N(C)C[C@@H](Cc3ccc(Cl)cc3)N(C)C(=O)[C@@H](CO)NC(=O)[C@@H]2C)c(Oc2ccc(-c3cnc(CN(C)C)n3C)cc2)c1 [Compound 121]
7. C[C@H]1C(=O)N[C@@H](CO)C(=O)N[C@@]2(Cc3ccc(Cl)cc3)CCCN(C2)C(=O)[C@H](Cc2ccccc2)CC(=O)N1Cc1c(F)cc(Cl)cc1Oc1ccc(-c2cnc(CN(C)C)n2C)cc1F [Compound 87]
8. Cc1cccc(C[C@@H]2CC(=O)N(Cc3c(F)cc(Cl)cc3Oc3ccc(-c4cnc(CN(C)C)n4C)cc3)[C@@H](C)C(=O)N[C@@H](CO)C(=O)N(C)[C@@]3(Cc4ccc(Cl)cc4)CCCN(C3)C2=O)n1 [Compound 170]

[9.04, 8.62, 8.79, 9.12, 9.20, 7.04, 9.24, 9.14]

I'm hoping you can list pIC50 for every molecule here, please.
1. CC[C@@H]1CC(=O)N(Cc2ccc(Cl)cc2Oc2ccc(-c3cnc(CN4CCCC4)n3C)cc2)[C@@H](C)C(=O)N[C@@H](CO)C(=O)N(C)[C@H](Cc2ccc(Cl)cc2)CNC1=O.Cl [Compound 124]
2. COC[C@@H]1NC(=O)[C@H](CCN2CCOCC2)N(Cc2ccc(Cl)cc2Oc2ccc(-c3cnc(CN(C)C)n3C)cc2)C(=O)C[C@@H]([C@H]2CCc3ccccc32)C(=O)N(C)C[C@@H](Cc2ccc(Cl)cc2)N(C)C1=O.Cl [Compound 125]

[6.99, 6.99]
